Listed molecules paired with reported growth
tested on: OVCAR-3 ovarian; assay: NCI-60 one-dose screen, 48 h (100 = growth as untreated, 0 = no growth, -100 = all killed); settings: 10 µM unless noted
About 83,000 compounds went through this panel and 20% of them were active in at least one assay; those are over-represented in the sample as a whole.

Molecule	U	growth
CN(C)c1ccc(-c2nc(-c3ccccc3)c(-c3ccccc3)[nH]2)cc1	%	114
COc1ccc(/C(C)=C(/c2ccc(OCCCN(C)C)cc2)c2ccc(OC(=O)c3ccccc3)cc2)cc1	%	69.5
CCCCCCCCCCCCCCCCCC1=NC(C)(C)CN1CC(C)O (centres undefined)	%	46.6
COc1cc(/C=C/C(=O)c2ccc(-n3cc(CN4CCN(c5cc6c(cc5F)c(=O)c(C(=O)O)cn6C5CC5)CC4)nn3)cc2)ccc1O	%	57.3
COc1ccc2c(c1)/C(=N/c1n[nH]c(=S)s1)C(=O)N2	%	96.2
Cc1ccc(-c2nc(/C=C3/C(=O)Nc4ccc(F)cc43)c3ccccn23)cc1	%	110
COC(=O)c1ccc(NC(=O)Nc2ccc(C(=O)OC)cc2)cc1	%	113
Cc1ccc(CNc2c3ccccc3nc3ccccc23)cc1	%	34.1
Cc1c(Cl)cccc1C(=O)Nc1nc2c(s1)CN(C(=O)c1ccc(C(F)(F)F)cc1)CC2	%	0.113
CNC1=C([N+](=O)[O-])C(c2ccc(OC)cc2)C(C#N)=C(c2cccs2)O1 (centres undefined)	%	99.4
O=C(Oc1ccc(CCl)cc1)c1ccccc1	%	-97.3
COc1cc(/C=C/C(=O)/C=C(O)/C=C/c2ccc(OC(=O)C34CC5CC(CC(C5)C3)C4)c(OC)c2)ccc1OC(=O)C12CC3CC(CC(C3)C1)C2	%	109
N#Cc1ccc(O)c(C2=NCC(Cc3ccccc3)O2)c1 (centres undefined)	%	16.1
NC(=O)c1cnc(Nc2cccc(N)c2)nc1NCCCNC(=O)C1CCC1	%	82.6
N#CC1CCc2c(c(-c3ccc4nc(N)sc4c3)nc3ccc4[nH]ncc4c23)C1 (centres undefined)	%	69.7
C/C(=N\O)c1ccc(NC(=O)CSc2nnc(-c3cc(-c4ccc(S(N)(=O)=O)cc4)nc4ccccc34)n2-c2ccccc2)cc1	%	78
Cc1ccc(-c2csc(N(C(=O)N3CCN(c4cc5c(cc4F)c(=O)c(C(=O)O)cn5C4CC4)CC3)c3ccccc3)n2)cc1	%	7.88
Cc1ccc(C(=O)c2ccc(CC(=O)N=Nc3c(O)[nH]c4ccc(Br)cc34)n2C)cc1	%	105
Cc1cc(Nc2ccc(C(=O)N3CCCC3)cc2)nc(NCCCNc2ccnc3cc(Cl)ccc23)n1	%	90.3

---

system: MDA-MB-231 breast; test: NCI-60 one-dose screen, 48 h; settings: 10 µM unless noted
Compounds without any hit were thinned out: in the full panel of roughly 83,000, 20% have a hit. Calls of active or inactive are those of the source. Rule for the calls: active = growth percent below 10; inactive = the rest.
Labels: active, inactive

Molecule	Measured On	Qualitative Label
Cc1ccc(CNc2ccc3nc(CCC(C)C)[nH]c3c2)cc1	MDA-MB-231 breast	inactive
CCOC(=O)C(=Cc1ccc(-c2ccccc2)cc1)C(=O)OCC	MDA-MB-231 breast	inactive
O=C(Nc1ccccc1N1CCCC1=O)c1oc2ccc(F)cc2c1-c1cnn(-c2ccccc2)c1	MDA-MB-231 breast	inactive
CCOC(=O)/C=C1\S/C(=N\Nc2cc(=O)[nH]c3ccccc23)N(c2ccccc2)C1=O	MDA-MB-231 breast	inactive
CN1C(=O)/C(=C2\SC(=Nc3ccccc3)N(Nc3ccccc3)C2=O)c2ccccc21	MDA-MB-231 breast	inactive
CCOC(=O)c1c(C)nc2c(c1N)CC(=O)N2Cc1ccc(OC)cc1	MDA-MB-231 breast	inactive
C=CN(C(=O)N1CCN(c2cc3c(cc2F)c(=O)c(C(=O)O)cn3C2CC2)CC1)c1nc(-c2ccc(OC)cc2)cs1	MDA-MB-231 breast	inactive
COc1ccc(-c2n[nH]c(=O)c3nc(NC(=S)Nc4ccc(Oc5ccccc5)cc4)sc23)cc1	MDA-MB-231 breast	inactive
O=C(/C=C/c1ccccc1)c1ccc(Nc2nc(Nc3ccc(F)cc3)nc(Nc3ccc(Cl)cc3)n2)cc1	MDA-MB-231 breast	inactive
CCc1n(Cc2ccc3ccccc3n2)cc[n+]1Cc1ccc2ccccc2n1	MDA-MB-231 breast	inactive
Cc1ccc(/C=C/C(=O)Nc2ncc(Cc3ccc(F)cc3)s2)o1	MDA-MB-231 breast	inactive
CN1CCN(CCOc2ccc(-c3cnc4c(-c5ccc(F)cc5)cnn4c3)cc2)CC1	MDA-MB-231 breast	inactive
C/C=C(/C)n1cnc2c(Nc3ccccn3)nc(Cl)nc21	MDA-MB-231 breast	inactive
CCCCNc1nnc2n(Cc3ccccc3)c(=O)c3c4c(sc3n12)CCCC4	MDA-MB-231 breast	inactive
Cn1c2c(c3ccc(Cl)c(Cl)c31)C(C#N)C(C)(C)NC2=O (stereo not given)	MDA-MB-231 breast	inactive
FC(F)(F)c1ccc(Cn2cc(CSc3nc4ccccc4s3)nn2)cc1	MDA-MB-231 breast	inactive
Cn1cc(-c2ccc(-c3cn(C)c4ccc(Cl)cc34)[nH]2)c2cc(Cl)ccc21	MDA-MB-231 breast	active
CN(C)CCN1C(=O)c2cccc3c(/C=C/CN4C(=O)c5cccc6cccc(c56)C4=O)ccc(c23)C1=O	MDA-MB-231 breast	active
CCOC(=O)c1c(C)nc2ccccc2c1/C=C/c1cccs1	MDA-MB-231 breast	inactive
O=C1/C(=C2\SC(=S)N(C3CC3)C2=O)SC(=S)N1C1CC1	MDA-MB-231 breast	inactive
